Numbers sourced from paper PMC2756588.

Target: T1, Lsb4, P32793
T1 sequence (P32793 402-468, looked up): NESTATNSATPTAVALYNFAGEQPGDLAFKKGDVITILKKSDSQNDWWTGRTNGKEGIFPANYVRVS
Test: SPOT array
Details: median of control spots 397
Assay Metric: SPOT intensity

binder=LTRRFPFLFPFDTRM assay_metric="SPOT intensity" measured_number=4

1: RKRAPTPPAPSRSEK
2: FYNRTAFQLPGDARV
Query string: Could you tell me which of 1 and 2 has the lower SPOT intensity reading? Label of pick, please.
Result string: 2
(2: 0, 1: 29)
